src = patent US20250353864A1

Recorded measurements of log10(IC50), one per entry
- TEST_TARGET: EGFR L858R mutant (Homo sapiens (Human), UniProt P00533, L858R)
- Sequence (P00533 25-1210 L858R): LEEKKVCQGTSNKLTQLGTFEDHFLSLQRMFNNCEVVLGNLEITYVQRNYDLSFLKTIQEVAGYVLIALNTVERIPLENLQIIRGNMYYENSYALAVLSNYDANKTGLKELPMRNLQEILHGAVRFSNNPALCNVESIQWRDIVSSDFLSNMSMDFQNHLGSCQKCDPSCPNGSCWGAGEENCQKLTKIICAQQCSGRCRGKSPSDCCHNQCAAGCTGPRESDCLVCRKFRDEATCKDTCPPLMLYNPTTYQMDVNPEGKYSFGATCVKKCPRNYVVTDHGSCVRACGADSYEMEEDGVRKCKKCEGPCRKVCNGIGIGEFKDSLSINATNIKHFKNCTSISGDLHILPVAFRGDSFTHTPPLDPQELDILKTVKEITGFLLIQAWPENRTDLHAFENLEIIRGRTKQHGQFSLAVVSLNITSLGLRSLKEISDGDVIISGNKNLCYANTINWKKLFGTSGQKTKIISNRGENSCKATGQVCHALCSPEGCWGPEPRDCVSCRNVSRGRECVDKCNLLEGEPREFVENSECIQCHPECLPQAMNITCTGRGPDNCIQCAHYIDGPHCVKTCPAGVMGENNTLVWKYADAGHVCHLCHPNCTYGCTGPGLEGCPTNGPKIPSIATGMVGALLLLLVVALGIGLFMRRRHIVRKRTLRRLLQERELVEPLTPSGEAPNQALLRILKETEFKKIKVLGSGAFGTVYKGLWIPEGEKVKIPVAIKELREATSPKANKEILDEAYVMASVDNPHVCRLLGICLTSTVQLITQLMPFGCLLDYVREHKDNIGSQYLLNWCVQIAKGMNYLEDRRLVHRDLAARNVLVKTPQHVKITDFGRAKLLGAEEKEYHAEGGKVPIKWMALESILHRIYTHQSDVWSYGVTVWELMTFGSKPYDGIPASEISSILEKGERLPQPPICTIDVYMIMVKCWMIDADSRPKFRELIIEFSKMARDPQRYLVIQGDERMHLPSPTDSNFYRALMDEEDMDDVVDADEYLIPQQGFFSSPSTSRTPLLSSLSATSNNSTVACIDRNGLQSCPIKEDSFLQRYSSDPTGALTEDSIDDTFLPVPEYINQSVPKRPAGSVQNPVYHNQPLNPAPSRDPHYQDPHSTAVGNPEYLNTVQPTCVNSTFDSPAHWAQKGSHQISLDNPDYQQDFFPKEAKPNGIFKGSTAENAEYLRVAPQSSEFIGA
- ASSAY: HotSpot radiometric kinase assay, EGFR L858R mutant
- Type: biochemical
- DETAILS: 10 μM ATP
MEASURE: log10(IC50) (log10 of the value in µM)

- COMPOUND: "CC(C)Oc1nn(CCO)c2c1/C=C/c1n[nH]c3ccc(cc13)-c1cnn(C)c1OC(CF)CN(C)C2 (stereo not shown) [Example 225]"
  log10(IC50): -1.91
- COMPOUND: "Cc1nn([C@@H]2COC[C@H]2O)c2c1/C=C/c1n[nH]c3ccc(cc13)-c1cnn(C)c1OCCCO2 (single isomer, unassigned) [Example 77]"
  log10(IC50): 0.32
- COMPOUND: "Cc1nn(CCO)c2c1/C=C/c1n[nH]c3ccc(cc13)-c1cnn(C)c1O[C@@H](C)CN(C(C)C)C2 [Example 114]"
  log10(IC50): -4.00
- COMPOUND: "C[C@H]1CN(C)Cc2c(c(O)nn2CCO)/C=C/c2n[nH]c3ccc(cc23)-c2cnn(C)c2O1 [Example 186]"
  log10(IC50): -1.84
- COMPOUND: "CC(C)Oc1nn(CCO)c2c1/C=C/c1n[nH]c3cc(F)c(cc13)-c1cnn(C)c1O[C@@H]1CCCN(C2)C1 [Example 199]"
  log10(IC50): -1.06
- COMPOUND: "Cc1nn(C)c2c1/C=C/c1n[nH]c3ccc(cc13)-c1cnn(C)c1OCCN1CC[C@@H](O2)C1=O [Example 109]"
  log10(IC50): -0.78

###

- TEST_TARGET: UniProtKB P49759
- Sequence (P49759 whole entry): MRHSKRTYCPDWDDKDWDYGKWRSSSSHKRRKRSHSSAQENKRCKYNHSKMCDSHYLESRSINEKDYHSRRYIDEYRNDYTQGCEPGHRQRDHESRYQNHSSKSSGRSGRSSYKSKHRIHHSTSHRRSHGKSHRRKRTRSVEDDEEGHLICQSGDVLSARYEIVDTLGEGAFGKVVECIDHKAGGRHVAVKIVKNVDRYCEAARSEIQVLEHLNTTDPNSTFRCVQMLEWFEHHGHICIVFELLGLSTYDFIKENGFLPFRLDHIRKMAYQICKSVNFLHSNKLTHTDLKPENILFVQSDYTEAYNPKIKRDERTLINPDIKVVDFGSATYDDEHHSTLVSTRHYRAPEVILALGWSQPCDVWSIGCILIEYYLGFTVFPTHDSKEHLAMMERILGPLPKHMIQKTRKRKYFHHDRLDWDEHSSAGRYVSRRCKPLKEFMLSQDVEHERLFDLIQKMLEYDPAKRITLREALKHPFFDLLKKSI
- ASSAY: Inhibition of CLK1 kinase activity evaluated at Nanosyn (ADP-Glo)
- Assay type: biochemical
- DETAILS: ADP-Glo luminescence
pIC50: −log10 of the molar value.
Recorded measurements of pIC50, one per entry

- COMPOUND: "CCOc1nn(CCO)c2c1/C=C/c1n[nH]c3ccc(cc13)-c1cnn(C)c1O[C@@H]1CCCN(C2)C1"
  TEST_TARGET: "UniProtKB P49759"
  pIC50: 8.86
- COMPOUND: "Cc1c2c(nn1C[C@H](C)O)CN(C)C[C@H](C)Oc1c(cnn1C)-c1ccc3[nH]nc(c3c1)/C=C/2"
  TEST_TARGET: "UniProtKB P49759"
  pIC50: 9.82
- COMPOUND: "CC(C)Oc1nn(CCO)c2c1/C=C/c1n[nH]c3ccc(cc13)-c1cnn(C)c1OC(CF)CN(C)C2 (stereo not drawn)"
  TEST_TARGET: "UniProtKB P49759"
  pIC50: 8.95

###

Recorded measurements of log10 IC50, one per entry
- TEST_TARGET: CLK3 (Homo sapiens (Human), UniProt P49761)
- Sequence (P49761 whole entry): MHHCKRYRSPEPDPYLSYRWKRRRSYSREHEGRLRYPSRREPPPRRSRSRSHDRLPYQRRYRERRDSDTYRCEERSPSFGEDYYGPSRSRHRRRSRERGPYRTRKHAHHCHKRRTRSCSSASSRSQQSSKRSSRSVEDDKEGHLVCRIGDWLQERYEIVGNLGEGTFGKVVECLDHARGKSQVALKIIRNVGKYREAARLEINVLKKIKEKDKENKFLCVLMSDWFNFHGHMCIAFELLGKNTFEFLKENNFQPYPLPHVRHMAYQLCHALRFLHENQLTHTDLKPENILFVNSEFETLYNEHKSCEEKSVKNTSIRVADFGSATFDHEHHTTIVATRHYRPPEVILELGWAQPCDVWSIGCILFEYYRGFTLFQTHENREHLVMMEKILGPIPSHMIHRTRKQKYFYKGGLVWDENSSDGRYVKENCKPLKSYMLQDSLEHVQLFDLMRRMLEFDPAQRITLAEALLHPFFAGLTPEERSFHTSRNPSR
MEASURE: log10 IC50 (log10 of the value in nM)

- MOLECULE: "Cn1ncc2c1OCCN1CC[C@H](C1)Oc1ccccc1/C=C/c1n[nH]c3ccc-2cc13 [Example 170]"
  log10 IC50: 3.00
- MOLECULE: "Cc1nn(C)c2c1/C=C/c1n[nH]c3ccc(cc13)-c1cnn(C)c1O[C@@H](C)CN(C1CC1)C2 [Example 161]"
  log10 IC50: 2.21
- MOLECULE: "CCOc1nn([C@@H](C)CO)c2c1/C=C/c1n[nH]c3ccc(cc13)-c1cnn(C)c1O[C@@H](C)CN(C)C2 [Example 155]"
  log10 IC50: 1.94
- MOLECULE: "Cc1c2c(nn1C)CN(C)C[C@H](C)Oc1c(cnn1C)-c1ccc3[nH]nc(c3c1)/C=C/2 [Example 58]"
  log10 IC50: 2.20
- MOLECULE: "Cc1nn(CCO)c2c1/C=C/c1n[nH]c3ccc(cc13)-c1cnn(C)c1O[C@@H](C)CN(C)C2 [Example 61]"
  log10 IC50: 1.33
- MOLECULE: "C[C@H]1CN(C)Cc2onc(C3CC3)c2/C=C/c2n[nH]c3ccc(cc23)-c2cnn(C)c2O1 [Example 173]"
  log10 IC50: 3.00
- MOLECULE: "CC(C)Oc1nn(CCO)c2c1/C=C/c1n[nH]c3ccc(cc13)-c1cnn(C)c1OC(CF)CN(C)C2 (stereo not shown) [Example 225]"
  log10 IC50: 1.89

###

- TEST_TARGET: EGFR Δ746-750/C797S mutant (Homo sapiens (Human), UniProt P00533, C797S/DEL746-750)
- Sequence (P00533 other isoform, or with tags, fused parts or gaps C797S/del 1-668/del 746-750 limits assumed): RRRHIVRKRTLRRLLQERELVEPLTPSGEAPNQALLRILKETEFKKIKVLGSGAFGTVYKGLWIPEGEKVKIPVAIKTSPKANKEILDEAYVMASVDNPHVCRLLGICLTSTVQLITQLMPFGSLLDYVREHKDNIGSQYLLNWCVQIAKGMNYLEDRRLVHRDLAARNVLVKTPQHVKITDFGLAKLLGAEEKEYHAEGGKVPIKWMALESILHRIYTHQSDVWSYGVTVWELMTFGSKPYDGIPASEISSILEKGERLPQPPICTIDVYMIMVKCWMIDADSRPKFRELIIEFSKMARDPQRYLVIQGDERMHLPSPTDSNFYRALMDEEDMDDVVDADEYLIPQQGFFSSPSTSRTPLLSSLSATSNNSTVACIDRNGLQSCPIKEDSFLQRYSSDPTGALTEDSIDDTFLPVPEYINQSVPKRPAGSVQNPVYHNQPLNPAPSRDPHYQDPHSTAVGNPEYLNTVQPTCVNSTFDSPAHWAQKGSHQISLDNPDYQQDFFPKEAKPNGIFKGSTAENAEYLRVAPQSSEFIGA
- ASSAY: HotSpot radiometric kinase assay, EGFR Δ746-750/C797S mutant
- DETAILS: 10 μM ATP
pIC50: −log10 of the molar value.
MEASURE: pIC50

- COMPOUND: "CCN1Cc2c(c(C)nn2C)/C=C/c2n[nH]c3ccc(cc23)-c2cnn(C)c2O[C@@H](C)C1 [Example 165]"
  REPORTED_VALUE: 8.63
- COMPOUND: "CC(C)Oc1nn(CCO)c2c1/C=C/c1n[nH]c3ccc(cc13)-c1cnn(C)c1O[C@@H](C#N)CN(C)C2 [Example 264]"
  REPORTED_VALUE: 7.15
- COMPOUND: "Cc1nn(C)c2c1/C=C/c1n[nH]c3ccc(cc13)-c1cnn(C)c1OCCN1CC[C@@H](O2)C1=O [Example 109]"
  REPORTED_VALUE: 6.82
- COMPOUND: "C[C@H]1CN(C)Cc2c(c(C#N)nn2C)/C=C/c2n[nH]c3ccc(cc23)-c2cnn(C)c2O1 [Example 159]"
  REPORTED_VALUE: 7.85

###

- TEST_TARGET: EGFR L858R mutant (Homo sapiens (Human), UniProt P00533, L858R)
- ASSAY: HotSpot radiometric kinase assay, EGFR L858R mutant
- DETAILS: 10 μM ATP
# 1 = IC50 below 20 nM (exclusive); 0 = IC50 at/above 20 nM

- COMPOUND: "Cn1ncc2c1OCCCCOc1ccccc1/C=C/c1n[nH]c3ccc-2cc13"
  CLASSIFICATION: 0
- COMPOUND: "CCc1nn(CCO)c2c1/C=C/c1n[nH]c3ccc(cc13)-c1cnn(C)c1OCCCO2"
  CLASSIFICATION: 0
- COMPOUND: "Cc1c2c(nn1CC(C)(C)O)OCCCOc1c(cnn1C)-c1ccc3[nH]nc(c3c1)/C=C/2"
  CLASSIFICATION: 0
- COMPOUND: "Cc1nn(C[C@H](C)O)c2c1/C=C/c1n[nH]c3ccc(cc13)-c1cnn(C)c1O[C@@H](C)CN(C)C2"
  CLASSIFICATION: 1
- COMPOUND: "CCN1Cc2c(c(C)nn2C)/C=C/c2n[nH]c3ccc(cc23)-c2cnn(C)c2O[C@@H](C)C1"
  CLASSIFICATION: 1
- COMPOUND: "CC(C)Oc1nn(CCO)c2c1/C=C/c1n[nH]c3cc(F)c(cc13)-c1cnn(C)c1O[C@H](C)CN(C(C)C)C2"
  CLASSIFICATION: 0
- COMPOUND: "C[C@H]1CN(C)Cc2c(c(OCC(F)(F)F)nn2C)/C=C/c2n[nH]c3ccc(cc23)-c2cnn(C)c2O1"
  CLASSIFICATION: 0
- COMPOUND: "CCc1nn(C)c2c1/C=C/c1n[nH]c3ccc(cc13)-c1cnn(C)c1CN(C)CCO2"
  CLASSIFICATION: 0
- COMPOUND: "Cc1nn(C2CCN(C)C2)c2c1/C=C/c1n[nH]c3ccc(cc13)-c1cnn(C)c1CN(C)CCO2 (stereo not drawn)"
  CLASSIFICATION: 0
- COMPOUND: "Cc1c2c(nn1[C@H]1CCOC[C@@H]1O)OCCCOc1c(cnn1C)-c1ccc3[nH]nc(c3c1)/C=C/2 (racemic)"
  CLASSIFICATION: 0
- COMPOUND: "CCOC(=O)Cn1nc(OCC)c2c1CN(CC)C[C@H](C)Oc1c(cnn1C)-c1ccc3[nH]nc(c3c1)/C=C/2"
  CLASSIFICATION: 0
- COMPOUND: "CCOc1nn(C)c2c1/C=C/c1n[nH]c3cc(F)c(cc13)-c1cnn(C)c1OC1CCCN(C2)C1 (stereo in doubt)"
  CLASSIFICATION: 1
- COMPOUND: "Cc1nn([C@H]2CCNC[C@@H]2O)c2c1/C=C/c1n[nH]c3ccc(cc13)-c1cnn(C)c1OCCCO2 (racemic)"
  CLASSIFICATION: 0
- COMPOUND: "Cc1nn([C@H]2CCN(C)C[C@@H]2O)c2c1/C=C/c1n[nH]c3ccc(cc13)-c1cnn(C)c1OCCCO2 (racemic)"
  CLASSIFICATION: 1
- COMPOUND: "Cc1c2c(nn1CCN1CCN(C)CC1)CN(C)C[C@H](C)Oc1c(cnn1C)-c1ccc3[nH]nc(c3c1)/C=C/2"
  CLASSIFICATION: 1
